assayProcedure: Pharmacokinetic evaluation in healthy subjects: myoinositol plus alpha lactalbumin (plasma myoinositol by GCMS)
Format: in vivo
cond: both sexes, human, single oral dose in powder, 6 g myoinositol alone or plus 150 mg alpha lactalbumin, 15 healthy volunteers, mean
Description: The present example describes a pharmacokinetic study combining the oral administration of myoinositol and alpha lactalbumin in healthy subjects. The study aims to determine whether the combination of myoinositol and alpha lactalbumin is able to increase the plasma level of myoinositol above that observed after administering myoinositol alone. The study involved 15 healthy volunteers, 6 men and 9 women. […]
quantityMeasured: Tmax (h)
Express your answer in h, writing the number without its unit.

Data request: I'd like to know its Tmax. The molecule in question is O[C@H]1[C@H](O)[C@@H](O)[C@H](O)[C@@H](O)[C@H]1O
Data returned: 3

----------
assayProcedure: clinical
cond: female, human, in vivo
quantityMeasured: concentration at 3 months (µM)
Express your answer in µM, writing the number without its unit.

Data request: I'd like to know its concentration at 3 months. The compound in question is O[C@H]1[C@H](O)[C@@H](O)[C@H](O)[C@@H](O)[C@H]1O
Data returned: 17

----------
assayProcedure: Pharmacokinetic evaluation in healthy subjects: myoinositol plus alpha lactalbumin (plasma myoinositol by GCMS)
Type: in vivo
cond: both sexes, human, single oral dose in powder, 6 g myoinositol alone or plus 150 mg alpha lactalbumin, 15 healthy volunteers, mean
quantityMeasured: Cmax (µM)
Express your answer in µM, writing the number without its unit.

Data request: I'd like to know its Cmax. The compound in question is O[C@H]1[C@H](O)[C@@H](O)[C@H](O)[C@@H](O)[C@H]1O
Data returned: 98

Sourced from patent US11364282B2
